Measurement record for wild-type E. coli; quantity recorded: MIC.
Numeric only. Scale: µg/mL

The examples below pair each entry with its known result.
Compound	Quantitative readout
NCCNc1ccc([N+](=O)[O-])c(N2CCN(c3ccc([N+](=O)[O-])cc3)CC2)c1	8
NCCNc1ccc([N+](=O)[O-])c(NCCOc2ccccc2)c1	13
CO[C@H]1/C=C/O[C@@]2(C)Oc3c(C)c(O)c4c(O)c(c(/C=N/N5CCN(C)CC5)c(O)c4c3C2=O)NC(=O)/C(C)=C\C=C\[C@H](C)[C@H](O)[C@@H](C)[C@@H](O)[C@@H](C)[C@H](OC(C)=O)[C@@H]1C [Rif, rifampin, reference compound]	4

Please find the next compound below.
For the compound CC1(C)S[C@@H]2[C@H](NC(=O)[C@H](N)c3ccccc3)C(=O)N2[C@H]1C(=O)O [Amp, Ampicillin, reference compound] , the measured MIC on wild-type E. coli was 2
